Tested on: HIV-1HXB2 (gp41)
Conditions: 1HXB2 (gp41, 48 h)
pIC50: −log10 of the molar value. Ends that are not written are not given here.

{"columns": ["Sequence string", "pIC50"],
 "data": [
  ["GGHTTWMEWDREINNYISLIHSLIEESQNQQEKNEQELLGHHHHHH [T639I (NYI)]", 8.77],
  ["GGHTTDMEWDREINNYTSLAHSLIEESQNQQEKNEQELLGHHHHHH [W628D/I642A]", 7.19],
  ["GGHTTWMEWDREINNYTSLIHSLIEESQNDQEKNEQELLGHHHHHH [Variant Q652D]", 7.28],
  ["GGHTTWMEWDREINNYTSLIHSLIEEAQNQQEKNEQELLGHHHHHH [Variant S649A]", 8.80],
  ["GGHTTDMEWDREANNYTSLIHSLIEESQNQQEKNEQELLGHHHHHH [W628D/I635A]", 7.01],
  ["GGHTTWMEWDREINKYTSLIHSLIEESQNQQEKNEQELLGHHHHHH [N637K (KYT)]", 8.78],
  ["GGHTTWMEWDREINNYTSLIHSLIEESQNQQEKNEQALLGHHHHHH [Variant E659A]", 8.92],
  ["GGHTTWMEWDREINNYTSLIHSAIEESQNQQEKNEQELLGHHHHHH [Variant L645A]", 8.41],
  ["GGHTTWMEWDREINNYTSLIHSLIEESQNQQEKAEQELLGHHHHHH [Variant N656A]", 7.52],
  ["GGHTTWMEWDREINNYTSLDHSLIEESQNQQEKNEQELLGHHHHHH [Variant I642D]", 4.89]
]}

These entries and their values trace back to paper PMC2776349.
